Numbers sourced from patent US20230382920A1.

test: Pharmacokinetics study of KDG-0388 in male CD1 mice (Example 2); assay type: in vivo; conditions: mouse, plasma; male CD1 mice, 200 mg/kg IP
readout-name: Tmax (min)
Dear colleague, please return just the value in min, with no unit written.

Task: What does the data say about its Tmax? Entry: Cc1n[nH]c2c1C(c1cc(C#C[C@H]3C[C@@H](NC(=O)OC(C)(C)C)C3)cc(CO)c1)(C(C)C)C(C#N)=C(N)O2 (stereo partly shown) [KDG-0388]
Result: 15

* * *

experiment: Pharmacokinetics study of KDG-0388 in male CD1 mice (Example 2); assay type: in vivo; conditions: male, mouse; CD1 mice, plasma, 1 mg/kg IV, 1 h; read-out: Concentration IV_Mean
readout-name: concentration at 1 h

Task: // lookup concentration at 1 h for Cc1n[nH]c2c1C(c1cc(C#C[C@H]3C[C@@H](NC(=O)OC(C)(C)C)C3)cc(CO)c1)(C(C)C)C(C#N)=C(N)O2 (stereo partly shown)
Result: 11.8 ng/mL

* * *

assay: Mouse liver microsome assay (metabolic stability); assay type: in vitro ADME; settings: mouse liver microsomes, in vitro intrinsic clearance; read-out: Relative Clint
Recorded measurements of microsomal CLint at 2 µM, one per entry

Worked cases, microsomal CLint at 2 µM given:
{"compound": "Cc1n[nH]c2c1C(c1cc(C#CC3CCN(C(=O)OC(C)(C)C)CC3)cc(CO)c1)(C(C)C)C(C#N)=C(N)O2 (centres unmarked) [KDG-0289]", "microsomal CLint at 2 µM": "100 to 250 µL/min/mg"}
{"compound": "Cc1n[nH]c2c1C(c1cc(C#C[C@H]3C[C@@H](NC(=O)OC(C)(C)C)C3)cc(CO)c1)(C(C)C)C(C#N)=C(N)O2 (some centres unmarked) [KDG-0388]", "microsomal CLint at 2 µM": "≤ 70 µL/min/mg"}
{"compound": "Cc1n[nH]c2c1C(c1cc(C#C[C@H]3CC[C@@H](NC(=O)OC(C)(C)C)CC3)cc(CO)c1)(C(C)C)C(C#N)=C(N)O2 (some centres unmarked) [KDG-0321]", "microsomal CLint at 2 µM": "> 250 µL/min/mg"}
{"compound": "Cc1n[nH]c2c1C(c1cc(C#CC3CN(C(=O)OC(C)(C)C)C3)cc(CF)c1)(C(C)C)C(C#N)=C(N)O2 (centres unmarked) [KDG-0345]", "microsomal CLint at 2 µM": "100 to 250 µL/min/mg"}

Task: Which microsomal CLint at 2 µM reading was recorded for the compound Cc1n[nH]c2c1C(c1cc(C#CC3CN(C(=O)OC(C)(C)C)C3)cc(CO)c1)(C(C)C)C(C#N)=C(N)O2 (centres unmarked) [KDG-0271] ?
Result: 70 to 100 µL/min/mg

* * *

test system: HCT116; assay: HCT116 growth inhibition assay; assay type: cell-based; conditions: without formate
readout-name: IC50

{"compound": "Cc1n[nH]c2c1C(c1cc(C#C[C@H]3C[C@H](NC(=O)OC(C)(C)C)C3)cc(CF)c1)(C(C)C)C(C#N)=C(N)O2 (stereo partly shown)", "target-under-test": "HCT116", "IC50": "B″"}
{"compound": "Cc1n[nH]c2c1C(c1cc(C#C[C@H]3CC[C@@](C)(O)CC3)cc(CO)c1)(C(C)C)C(C#N)=C(N)O2 (stereo partly shown)", "target-under-test": "HCT116", "IC50": "B″"}
{"compound": "COC(=O)N1CC(F)(C#Cc2cc(CO)cc([C@@]3(C(C)C)C(C#N)=C(N)Oc4[nH]nc(C)c43)c2)C1", "target-under-test": "HCT116", "IC50": "B″"}
{"compound": "Cc1n[nH]c2c1C(c1cc(C#CC3CN(C(=O)OC(C)(C)C)C3)cc(CO)c1)(C(C)C)C(C#N)=C(N)O2 (stereo not shown) [KDG-0271-0-pk2]", "target-under-test": "HCT116", "IC50": "D″"}
{"compound": "Cc1n[nH]c2c1C(c1cc(C#C[C@H]3C[C@H](CNC(=O)OC(C)(C)C)C3)cc(CO)c1)(C(C)C)C(C#N)=C(N)O2 (stereo partly shown)", "target-under-test": "HCT116", "IC50": "B″"}
{"compound": "Cc1n[nH]c2c1C(c1cc(C#CC3CN(C(=O)OC(C)(O)O)C3)cc(COC(=O)C(N)C(C)O)c1)(C(C)C)C(C#N)=C(N)O2 (stereo not shown)", "target-under-test": "HCT116", "IC50": "B″"}

Continue with the next compound.
Task: Fill in the blank: the reported IC50 of Cc1n[nH]c2c1C(c1cc(C#CC34CC(C(=O)N(C)C)(C3)C4)cc(CO)c1)(C(C)C)C(C#N)=C(N)O2 (stereo not shown) is ____.
Result: C″

* * *

assay: Pharmacokinetics study of KDG-0320-0A in male CD1 mice (Example 1); format: in vivo; details: mouse, plasma, 30 mg/kg IP
Where a name gives a salt, the structure may show the parent alone.
readout-name: Tmax (min)
Your answer should be a plain number; it is taken to be in min.

Task: # Tmax lookup, item Cc1n[nH]c2c1C(c1cc(C#C[C@H]3CC[C@H](NC(=O)OC(C)(C)C)CC3)cc(CO)c1)(C(C)C)C(C#N)=C(N)O2 (stereo partly shown) [KDG-0320, hydrochloride]
Result: 15

* * *

experiment: Pharmacokinetics study of KDG-0271 in male CD1 mice (Example 4); type: in vivo; conditions: mouse, plasma, 30 mg/kg IP
readout-name: AUC(0-t) (ng·h/mL)
Kindly answer with a numeric value in ng·h/mL, unit omitted.

Task: Item under review: Cc1n[nH]c2c1C(c1cc(C#CC3CN(C(=O)OC(C)(C)C)C3)cc(CO)c1)(C(C)C)C(C#N)=C(N)O2 (stereo not shown) [KDG-0271] . Reported AUC(0-t)?
Result: 5220

* * *

Test: Pharmacokinetics study of KDG-0388 in male CD1 mice (Example 2)
Type: in vivo
Details: mouse; male CD1 mice, plasma, 200 mg/kg IP, 16 h; read-out: Concentration IP_Mean
Description: A standard PK study of KDG-0388 was performed in male CD1 mice dosed with a single oral or intraperitoneal dose of KDG-0388. The parameters of the PK study are described in Table 10. […] For IV and IP, after collection, plasma samples from the same time point were pooled, and the pooled samples were analyzed by LC/MS/MS. […] BLOQ=Below quantifiable limit of 1 ng/mL. […] The PO bioavailability (F %) was calculated as following: […] The IP bioavailability (F %) was calculated as following: […]
readout-name: concentration at 16 h (ng/mL)
Express it in ng/mL; write the number only.

Task: So what does the record say about concentration at 16 h for Cc1n[nH]c2c1C(c1cc(C#C[C@H]3C[C@@H](NC(=O)OC(C)(C)C)C3)cc(CO)c1)(C(C)C)C(C#N)=C(N)O2 (stereo partly shown) ?
Result: 247

* * *

experiment: Pharmacokinetics study of KDG-0271 in male CD1 mice (Example 4); format: in vivo; conditions: 50 mg/kg PO
readout-name: AUClast/D (kg·ng·h/mL/mg)
Kindly provide the numeric value in kg·ng·h/mL/mg only, without the unit symbol.

Task: What value of measured AUClast/D is listed for Cc1n[nH]c2c1C(c1cc(C#CC3CN(C(=O)OC(C)(C)C)C3)cc(CO)c1)(C(C)C)C(C#N)=C(N)O2 (stereo not shown) [KDG-0271] ?
Result: 38.1

* * *

Test: Pharmacokinetics study of KDG-0271 in male CD1 mice (Example 3)
Type: in vivo
Conditions: mouse; male CD1 mice, plasma, 200 mg/kg IP, 8 h; read-out: Concentration IP_Mean
Method: A standard PK study of KDG-0271 was performed in male CD1 mice dosed with a single oral or intraperitoneal dose of KDG-0271. The parameters of the PK study are described in Table 18. […] For IV and IP, after collection, plasma samples from the same time point were pooled, and the pooled samples were analyzed by LC/MS/MS. […] BLOQ=Below quantifiable limit of 1 ng/mL. […] The PO bioavailability (F %) was calculated as following: […] The IP bioavailability (F %) was calculated as following: […]
readout-name: concentration at 8 h (ng/mL)
Give the value in ng/mL but do not write ng/mL after it.

Task: Dear colleague, I am looking for the recorded concentration at 8 h of the following molecule: Cc1n[nH]c2c1C(c1cc(C#CC3CN(C(=O)OC(C)(C)C)C3)cc(CO)c1)(C(C)C)C(C#N)=C(N)O2 (stereo not shown)
Result: 638

* * *

test: Pharmacokinetics study of KDG-0271 in male CD1 mice (Example 3); type: in vivo; conditions: mouse, plasma; male CD1 mice, 200 mg/kg IP
readout-name: Cmax (ng/mL)
Number in ng/mL, nothing else.

Task: # Cmax lookup, item Cc1n[nH]c2c1C(c1cc(C#CC3CN(C(=O)OC(C)(C)C)C3)cc(CO)c1)(C(C)C)C(C#N)=C(N)O2 (stereo not shown) [KDG-0271]
Result: 2160
